Data origin, for the record: the supplement of paper PMC5908809

test system: KHYG-1 (IL-2 2.5 ng/mL); experiment: percent inhibition of viability; higher = more inhibition; conditions: 72 h; 100 nM;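 further: normalised to DMSO-only wells as negative and benzethonium chloride as positive control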
assay.metric: percent inhibition of viability (%)
Write the number in % without appending the unit.

-- ask What measured percent inhibition of viability is associated with O=C1c2c(O)ccc(O)c2C(=O)c2c(NCCNCCO)ccc(NCCNCCO)c21 [Mitoxantrone] (max concentration tested 1000 nM) on KHYG-1 (IL-2 2.5 ng/mL)?
-- reply 17.7

-- ask And the next one, O=c1ncn2nc(Sc3ccc(F)cc3F)ccc2c1-c1c(Cl)cccc1Cl [VX 745] (max concentration tested 10000 nM) ?
-- reply -4.73

-- ask And the next one, CCc1c(C(=O)C(N)=O)c2c(OCC(=O)O)cccc2n1Cc1ccccc1 [Varespladib] (max concentration tested 10000 nM) ?
-- reply -0.03
